TGI: recorded values
# Tested on: SK-MEL-28 melanoma
# EXPERIMENT_DESCRIPTION: NCI tumour cell line growth inhibition, 48 h

COMPOUND	TGI
ClCC[N+]12CC[N+](CCCl)(CC1)C2	> 100 µM
CCCSc1nc(COC(=O)NC)c(COC(=O)NC)n1C	> 100 µM
CC(C)(C[C@H]1CN(S(=O)(=O)c2cccc(C(F)(F)F)c2)c2cc(-c3cc(F)cc(OC(F)F)c3)ccc2O1)C(=O)O	24.4 µM
CC/C=C\C[C@H]1C/C=C2/C(=O)C=C[C@@H]2C/C=C\CCCC(=O)O1	3.07 µM

Item `O=c1c2ccccc2c(=O)c2c1[nH]c1c(-c3ccccc3)c(-c3ccccc3)c(=O)c12` has what recorded TGI?
14.3 µM

Item CN(C)c1ccc(C2SCC(=O)N2c2ccc(Oc3ccc(Cl)cc3)c(Cl)c2)cc1 (stereo not given) has what recorded TGI?
> 100 µM

Item `COc1ccc(CCN2COc3c([C@@H](C)CCC=C(C)C)ccc(C)c3C2)cc1OC` has what recorded TGI?
4.94 µM

* * *

# System: SK-MEL-28 melanoma
# EXPERIMENT_DESCRIPTION: NCI tumour cell line growth inhibition, 48 h
OBSERVABLE: TGI (µM)
Respond with the bare value in µM.

Example entries and their recorded answers appear below.
COMPOUND	TGI [µM]
CCN1CCC(O)(/C=C/c2ccc(C)cc2C)C(C(=O)/C=C/c2ccc(C)cc2C)C1 (stereo unspecified)	10.9
COc1cc(OC)c(C2c3cc4c(cc3OC(N3CCCC3)C2C)OCO4)c(OC)c1 (stereo unspecified)	46.2
O=NN(CCCl)C(=O)NC1CCC(O)CC1 (stereo unspecified)	63.4
CC1=C(O)C(=O)C=C2C1=CC=C1[C@@]2(C)CC[C@@]2(C)[C@@H]3C[C@](C)(C(=O)O)CC[C@]3(C)CC[C@]12C	0.0345
C=C(Cl)C(C)(Cl)CCC(Br)C(C)(C)Cl (stereo unspecified)	48.1
Cc1cc(NCc2ccccc2)c2ccccc2[n+]1CCCCCCCCCC[n+]1c(C)cc(NCc2ccccc2)c2ccccc21	2.16
COc1ccc(CC2NCCc3cc(OC)c(OC)cc32)cc1Br (stereo unspecified)	33.7
CC(C)(Cl)C(Br)CCC(=CCCl)CBr (mixture of isomers)	5.65

Item `O=C(N/N=C/c1cc(Br)cc(Br)c1[O-])c1ccccc1O.O=C(N/N=C/c1cc(Br)cc(Br)c1[O-])c1ccccc1O.[Cu+2]` has what recorded TGI?
2.01

Item O=C(O)C1C(Br)(c2ccccc2)C1(Br)c1ccccc1 (stereo unspecified) has what recorded TGI?
52.6

* * *

GI50: recorded values
# System: NCI-H226 lung
# EXPERIMENT_DESCRIPTION: NCI tumour cell line growth inhibition, 48 h

Example entries and their recorded answers appear below.
COMPOUND	GI50
CC(C)(C[C@H]1CN(S(=O)(=O)c2cccc(C(F)(F)F)c2)c2cc(-c3cc(F)cc(OC(F)F)c3)ccc2O1)C(=O)O	15.2 µM
O=c1cccc(C#CC#CC2=CCCCC2)o1	6.87 µM
Cc1ccc(-c2nc3ccc(Cl)cc3c(=O)n2N2C(=O)CSC2c2ccccc2Cl)cc1 (stereo not given)	5.14 µM
CC(C)C[C@H](NC(=O)/C=C/Cn1ccc2ccccc2c1=O)B(O)O	1.76 µM

Let's switch to this compound now.
Item `CC1=C[C@H]2c3c(c(O)c(O)c4oc(-c5ccccc5)cc(=O)c34)[C@H](c3cc(O)c(O)c4oc(-c5ccccc5)cc(=O)c34)[C@H]2C(C)(C)C1` has what recorded GI50?
1.36 µM

* * *

# Test system: SF-539 CNS
# EXPERIMENT_DESCRIPTION: NCI tumour cell line growth inhibition, 48 h; in the data active = GI50 below about 0.43 µM; inactive = the rest
Outcome field: choose from active, inactive

A selection of reference data follows.
COMPOUND	DISCRETE_LABEL
COc1cc2[nH]c(C(=O)c3cc(OC)c(OC)c(OC)c3)c(N)c2cc1C#CC1CC1	inactive
COc1cccc(C#Cc2ccccc2C#CCCCCO)c1	inactive
CC1=C(C(=O)Nc2ccc(F)c(Cl)c2)C(c2cccc(O)c2)NC(=O)N1 (centres undefined)	inactive
Cc1ncc(CCCN(C)C)cc1Nc1ncc2c(n1)-c1ccc(C(F)(F)F)cc1NC(=S)C2	active
Cc1ccc2[nH]c(O)c(N=Nc3ccc(S(N)(=O)=O)cc3)c2c1	inactive
COc1ccc(-c2nn(-c3ccc(NC(=O)Nc4cc(C(F)(F)F)cc(C(F)(F)F)c4)cc3)cc2-c2ccncc2)cc1Cl	inactive

# fetch the recorded call for `COc1cc(C(=O)c2cc(C)c3[nH]c4ccc(C)cc4c3c2C)cc(OC)c1OC` here
active

# fetch the recorded call for `ClCc1cccc(Cn2cnc3nc(Cl)nc(Cl)c32)c1` here
active

# fetch the recorded call for `CCOc1cc(C(C)(C)C)ccc1C1=N[C@@](C)(c2ccc(Cl)cc2)[C@@](C)(c2ccc(Cl)cc2)N1C(=O)N1CCN(CCCS(C)(=O)=O)CC1` here
inactive

* * *

# System: MCF7 breast
# EXPERIMENT_DESCRIPTION: NCI tumour cell line growth inhibition, 48 h; in the data active = GI50 below about 0.43 µM; inactive = the rest
Outcome field: choose from t for active, f for inactive

MOLECULE	STUDY_TARGET	DISCRETE_LABEL
Cc1ncc(CCCN(C)C)cc1Nc1ncc2c(n1)-c1ccc(C(F)(F)F)cc1NC(=S)C2	MCF7 breast	t

# fetch the recorded call for `COc1ccc(CCN2COc3c([C@@H](C)CCC=C(C)C)ccc(C)c3C2)cc1OC` here
f

# fetch the recorded call for CC1=C(C(=O)Nc2ccc(F)c(Cl)c2)C(c2cccc(O)c2)NC(=O)N1 (stereo not given) here
f

* * *

# Test system: NCI-H460 lung
Outcome field: choose from active, inactive

A selection of reference data follows.
MOLECULE	DISCRETE_LABEL
O=C1CSC(c2ccc(Cl)cc2Cl)N1c1ccc(F)cc1 (stereo not given)	inactive
Cc1ccc2[nH]c(O)c(N=Nc3ccc(S(N)(=O)=O)cc3)c2c1	inactive
O=c1c2ccccc2c(=O)c2c1[nH]c1c(-c3ccccc3)c(-c3ccccc3)c(=O)c12	inactive

# fetch the recorded call for `COc1cc(C(=O)c2cc(C)c3[nH]c4ccc(C)cc4c3c2C)cc(OC)c1OC` here
active

# fetch the recorded call for `C[C@]12CC[C@@H]3c4cc(OCC(F)(F)F)c(O)cc4/C(=N/O)C[C@H]3[C@@H]1CC[C@@H]2O` here
active

# fetch the recorded call for `O=S(=O)(Nc1cc(Sc2cccc3cccnc23)c(O)c2ccccc12)c1ccccc1` here
inactive

# fetch the recorded call for `COc1ccc(-c2nn(-c3ccc(NC(=O)Nc4cc(C(F)(F)F)cc(C(F)(F)F)c4)cc3)cc2-c2ccncc2)cc1Cl` here
inactive

# fetch the recorded call for Nc1nc(F)nc2c1ncn2C1OC(CO)C(O)C1O (stereo not given) here
inactive

# fetch the recorded call for `CC(C)(C[C@H]1CN(S(=O)(=O)c2cccc(C(F)(F)F)c2)c2cc(-c3cc(F)cc(OC(F)F)c3)ccc2O1)C(=O)O` here
inactive

# fetch the recorded call for `CCCCON(OC(=O)c1ccc2ccc3cccc4ccc1c2c34)C(C)=O` here
inactive

# fetch the recorded call for `COc1cccc(C#Cc2ccccc2C#CCCCCO)c1` here
inactive

# fetch the recorded call for `COc1cc2[nH]c(C(=O)c3cc(OC)c(OC)c(OC)c3)c(N)c2cc1C#CC1CC1` here
inactive

# fetch the recorded call for `Cc1[nH]c2ccccc2c(=O)c1CC=C(Cl)Cl` here
inactive

# fetch the recorded call for `COc1ccc(/C=C/C(=O)C(CC2CCC2)C(=O)/C=C/c2ccc(OC)c(OC)c2)cc1OC` here
inactive

# fetch the recorded call for `CN(C)C(=O)[C@H](O)[C@H](Cc1ccccc1)NC(=O)c1cc2cc(Cl)ccc2[nH]1` here
inactive

* * *

# Test system: OVCAR-4 ovarian
# EXPERIMENT_DESCRIPTION: NCI tumour cell line growth inhibition, 48 h
OBSERVABLE: TGI

COMPOUND	READING
Nc1ccc2cc3ccc(N)cc3nc2c1	4.23 µM [middle of 4 runs]
N#Cc1c(Cl)cc(Cl)n2c1nc1ccccc12	34 µM
CC(C)=CCNc1ncnc2c1ncn2CCC#N	> 100 µM
COc1ccc(C(=O)COc2ccc(/C=C3\COc4ccc(OC)cc4C3=O)cc2)cc1	69.2 µM
CCOC(=O)NC(=O)c1cn(CCCOC(=O)CCCCCCCCCCC(=O)OCCCn2cc(C(=O)NC(=O)OCC)c(=O)[nH]c2=O)c(=O)[nH]c1=O	> 100 µM
C#Cc1c(I)n(C2OC(CO[Si](C)(C)C(C)(C)C)C3OC(C)(C)OC32)c(=O)[nH]c1=O (configuration not stated)	37.6 µM
COC(=O)C1=C(C)NC(C)=C(C(=O)OC)C1c1nc2sccn2c1[N+](=O)[O-]	> 100 µM
CC1=C[C@H]2c3c(c(O)c(O)c4oc(-c5ccccc5)cc(=O)c34)[C@H](c3cc(O)c(O)c4oc(-c5ccccc5)cc(=O)c34)[C@H]2C(C)(C)C1	9.55 µM

Let's switch to this compound now.
Item `CCCCON(OC(=O)c1ccc2ccc3cccc4ccc1c2c34)C(C)=O` has what recorded TGI?
59.9 µM
